Data credit: patent US6833372B2

target or test system: rat GnRH receptor (Rattus norvegicus, UniProt P30969)
Construct: or rat pituitaries (Pel Freez Biologicals, Rogers, Ark.) were homogenized; tissue Pel Freez Biologicals; host or cells: rat pituitaries (membrane preparation)
Sequence (P30969 whole entry): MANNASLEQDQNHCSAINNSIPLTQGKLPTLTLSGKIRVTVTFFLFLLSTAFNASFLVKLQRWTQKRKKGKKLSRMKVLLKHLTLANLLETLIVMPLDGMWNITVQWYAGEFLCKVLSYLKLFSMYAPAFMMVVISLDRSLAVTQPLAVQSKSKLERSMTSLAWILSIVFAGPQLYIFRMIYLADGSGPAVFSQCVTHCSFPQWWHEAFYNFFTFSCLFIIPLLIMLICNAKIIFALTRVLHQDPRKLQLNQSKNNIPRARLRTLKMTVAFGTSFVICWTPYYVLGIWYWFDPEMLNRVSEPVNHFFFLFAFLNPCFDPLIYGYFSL
assay info: Radioligand binding: inhibition of 125I-GnRH-A binding to rat GnRH receptor (rat pituitary membranes)
run conditions: read-out: Ki (nM), Inhibition Binding of 125I-GnRH-A to GnRH Receptors
Threshold-based label: Ki under 0.6 nM gives Condition met, Ki not under 0.6 nM gives Condition not met.

INPUT: # strict comparison: is reported Ki < 0.6 nM? input = COc1nc(NCCSCCO)nc(OC)c1NC(=O)c1ccc(Cc2cc3c(cc2C)C(C)(C)OC3(C)C)o1 [Example D42]
OUTPUT: Condition not met

INPUT: Please state whether Ki is below 0.6 nM for COc1nc(NCCCNCCCN)nc(OC)c1NC(=O)c1ccc(Cc2cc3c(cc2C)C(C)(C)OC3(C)C)o1 [Example D17]
OUTPUT: Condition met

INPUT: Regarding COc1nc(N[C@@H](CO)CSCc2ccccc2)nc(OC)c1NC(=O)c1ccc(Cc2cc3c(cc2C)C(C)(C)OC3(C)C)o1 [Example D50] , kindly confirm whether its Ki is beneath 0.6 nM.
OUTPUT: Condition not met

INPUT: Please let me know if CNCCCNc1nc(OC)c(NC(=O)c2ccc(Cc3cc4c(cc3C)C(C)(C)OC4(C)C)o2)c(OC)n1 [Example D60] shows Ki below 0.6 nM.
OUTPUT: Condition met

INPUT: Lab note: Ki threshold 0.6 nM. Does this molecule come in strictly under it? COc1nc(N2CCC3CNC(=O)C3C2)nc(OC)c1NC(=O)c1ccc(Cc2cc3c(cc2C)C(C)(C)OC3(C)C)o1 (stereo not shown) [Example D40]
OUTPUT: Condition not met

INPUT: In the record for COc1nc(NCCCN(C)C)nc(OC)c1NC(=O)c1ccc(Cc2c(C)cc(C)c3c2OCC3(C)C)o1 [Example H4] , is Ki less than 0.6 nM?
OUTPUT: Condition not met

INPUT: Does the reported Ki of the following molecule sit strictly below 0.6 nM? COc1nc(NCCCN2CCOCC2)nc(OC)c1NC(=O)c1ccc(Cc2cc3c(cc2C)C(C)(C)CCC3(C)C)o1 [Example B4]
OUTPUT: Condition met

----------
assay info: In vitro metabolism: disappearance of parent compound in dog liver microsomes
Type: in vitro ADME
run conditions: 5 uM compound, 30 minutes 37° C.
Description: Human, rat, dog, and monkey liver microsomes were isolated by differential centrifugation. Specimens of human liver were obtained from the International Institute for the Advancement of Medicine (Scranton, Pa.). The disappearance of the parent compound was studied in a mixture containing 5 uM compound, 0.5 mg/ml microsomal protein, and 2 mM NADPH in 50 mM K phosphate buffer, pH 7.4. […] The reaction was terminated by the addition of acetonitrile and compounds analyzed by LC-MS as described above.
Consider the following molecules; for each one, report its Dog % rem. 30′.
Enter your answer as a number in %; do not include the unit.

INPUT: Which value of Dog % rem. 30′ has been reported for COc1nc(NCCN2CCOCC2)nc(OC)c1NC(=O)c1ccc(Cc2cc3c(cc2C)C(C)(C)OC3(C)C)o1 in the records?
OUTPUT: 34

INPUT: Look up Dog % rem. 30′ for this molecule: COc1nc(N(C)C)nc(OC)c1NC(=O)c1ccc(Cc2cc3c(cc2C)C(C)(C)OC3(C)C)o1
OUTPUT: 49

INPUT: Bench note: what Dog % rem. 30′ did COc1nc(OC)c(NC(=O)c2ccc(Cc3cc4c(cc3C)C(C)(C)CCC4(C)C)o2)c(OC)n1 show?
OUTPUT: 0

INPUT: Reported Dog % rem. 30′ for COc1nc(NCCN(C)C)nc(OC)c1NC(=O)c1ccc(Cc2cc3c(cc2C)C(C)(C)OC3(C)C)o1 : what is it?
OUTPUT: 66

INPUT: Which measured Dog % rem. 30′ value corresponds to COc1nc(NCCCN2CCOCC2)nc(OC)c1NC(=O)c1ccc(Cc2cc3c(cc2C)CCCC3(C)C)o1 ?
OUTPUT: 31

INPUT: # input molecule: CCN(CC)CCNc1nc(OC)c(NC(=O)c2ccc(Cc3cc4c(cc3C)C(C)(C)OC4(C)C)o2)c(OC)n1 ; wanted: its Dog % rem. 30′
OUTPUT: 91

INPUT: Give the measured Dog % rem. 30′ of COc1nc(NCCCN2CCCCC2)nc(OC)c1NC(=O)c1ccc(Cc2cc3c(cc2C)C(C)(C)OC3(C)C)o1 .
OUTPUT: 87

----------
Assign Monkey % rem. to each entry below.
assay info: In vitro metabolism: disappearance of parent compound in monkey liver microsomes
Format: in vitro ADME
run conditions: 5 uM compound, 30 minutes 37° C.
Return type: number; implicit unit %.

INPUT: I am curious: what Monkey % rem. value has been reported for COc1nc(OC)c(NC(=O)c2ccc(Cc3cc4c(cc3C)C(C)(C)CCC4(C)C)o2)c(OC)n1 [Example C1] ?
OUTPUT: 0

INPUT: Name the recorded Monkey % rem. for COc1nc(NCCCN2CCOCC2)nc(OC)c1NC(=O)c1ccc(Cc2cc3c(cc2Cl)C(C)(C)CCC3(C)C)o1 [Example G1] .
OUTPUT: 0

INPUT: Recorded Monkey % rem. for COc1nc(NCCCN2CCOCC2)nc(OC)c1NC(=O)c1ccc(Cc2cc3c(cc2C)C(C)(C)CCC3(C)C)o1 [Example B4] , please?
OUTPUT: 0

INPUT: Looking for the measured Monkey % rem. of COc1nc(Nc2ccccc2)nc(OC)c1NC(=O)c1ccc(Cc2cc3c(cc2C)C(C)(C)OC3(C)C)o1 [Example D1] , can you help?
OUTPUT: 22

INPUT: Field request: Monkey % rem. | item: COc1nc(NCCC#N)nc(OC)c1NC(=O)c1ccc(Cc2cc3c(cc2C)CCCC3(C)C)o1 [Example F2]
OUTPUT: 2

INPUT: Look up Monkey % rem. for this compound: COc1nc(NCCN2CCNCC2)nc(OC)c1NC(=O)c1ccc(Cc2cc3c(cc2C)C(C)(C)OC3(C)C)o1 [Example D14]
OUTPUT: 63

INPUT: Requested read-out: Monkey % rem.. Entry: COc1nc(N(CCCN2CCCCC2)CCCN2CCCCC2)nc(OC)c1NC(=O)c1ccc(Cc2cc3c(cc2C)C(C)(C)OC3(C)C)o1 [Example D21]
OUTPUT: 85

----------
Assignment: determine reported Monkey % rem. for the given compounds.
assay info: In vitro metabolism: disappearance of parent compound in monkey liver microsomes
Type: in vitro ADME
run conditions: 5 uM compound, 30 minutes 37° C.
Give just the number in %; leave the unit off.

INPUT: Given the compound COc1nc(N(C)C)nc(OC)c1NC(=O)c1ccc(Cc2cc3c(cc2C)C(C)(C)OC3(C)C)o1 , what is its reported Monkey % rem.?
OUTPUT: 4

INPUT: Recorded Monkey % rem. of COc1nc(NCCCNCCCN)nc(OC)c1NC(=O)c1ccc(Cc2cc3c(cc2C)C(C)(C)OC3(C)C)o1 , please.
OUTPUT: 42

INPUT: Need Monkey % rem. of COc1nc(NCCCN(C)C)nc(OC)c1NC(=O)c1ccc(Cc2cc3c(cc2C)C(C)(C)OC3(C)C)o1 , thanks.
OUTPUT: 44

INPUT: // lookup Monkey % rem. for COc1nc(NCCN2CCOCC2)nc(OC)c1NC(=O)c1ccc(Cc2cc3c(cc2C)C(C)(C)OC3(C)C)o1
OUTPUT: 2

INPUT: Could you tell me which Monkey % rem. is on file for CCN(CC)CCNc1nc(OC)c(NC(=O)c2ccc(Cc3cc4c(cc3C)C(C)(C)OC4(C)C)o2)c(OC)n1 ?
OUTPUT: 16

----------
target or test system: human GnRH receptors (Homo sapiens, UniProt P30968)
Construct: expressed in transfected cells; host or cells: HEK 293 cells, stably transfected; membranes
Sequence (P30968 1-328): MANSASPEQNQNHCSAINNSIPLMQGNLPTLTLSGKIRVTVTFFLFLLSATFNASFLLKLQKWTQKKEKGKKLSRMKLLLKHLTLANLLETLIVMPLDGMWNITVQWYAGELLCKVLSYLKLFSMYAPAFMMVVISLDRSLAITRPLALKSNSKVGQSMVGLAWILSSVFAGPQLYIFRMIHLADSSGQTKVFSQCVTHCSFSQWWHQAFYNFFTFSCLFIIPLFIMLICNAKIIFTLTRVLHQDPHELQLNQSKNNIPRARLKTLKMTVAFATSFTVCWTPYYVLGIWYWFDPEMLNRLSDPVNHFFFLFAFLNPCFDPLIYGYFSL
assay info: Radioligand binding: inhibition of 125I-GnRH-A binding to human GnRH receptor membranes
run conditions: HEK 293 cell membranes
Experimental: HEK 293 cells stably transfected with mouse or human GnRH receptors as described above were grown in Dulbecco's high-glucose, modified Eagle's medium (DMEM) supplemented with 0.2% G418, 10% fetal bovine serum (FBS) and 100 U/mL penicillin/streptomycin. […] The radioiodinated agonist analog of GnRH, [des-Gly^10,D-Ala^6]GnRH ethylamide (^125I-GnRH-A), was used as the radioligand. […] Fractions were assessed for biological activity by radioligand binding. […]
value kind: log10 of Ki (log10 of the value in nM)
A value of 2 here means Ki of 100 in nM, since values are log10.

INPUT: Please provide the recorded log10 of Ki for COc1ccccc1C1CCN(c2nc(OC)c(NC(=O)c3ccc(Cc4cc5c(cc4C)C(C)(C)OC5(C)C)o3)c(OC)n2)CC1 , tested on human GnRH receptors (Homo sapiens, UniProt P30968).
OUTPUT: 2.41

INPUT: Param readout= log10 of Ki; system= human GnRH receptors (Homo sapiens, UniProt P30968); entry= COc1nc(NC2CCCCC2C2CCCCC2)nc(OC)c1NC(=O)c1ccc(Cc2cc3c(cc2C)C(C)(C)OC3(C)C)o1 (stereo not shown) ; returns value.
OUTPUT: 3.83

INPUT: Any idea what log10 of Ki came out for COc1nc(NCCc2ccncc2)nc(OC)c1NC(=O)c1ccc(Cc2cc3c(cc2C)C(C)(C)OC3(C)C)o1 on human GnRH receptors (Homo sapiens, UniProt P30968)?
OUTPUT: 0.71

INPUT: Param readout= log10 of Ki; system= human GnRH receptors (Homo sapiens, UniProt P30968); entry= COc1nc(NCCCCN(C)C)nc(OC)c1NC(=O)c1ccc(Cc2cc3c(cc2C)C(C)(C)OC3(C)C)o1 ; returns value.
OUTPUT: 0.04

INPUT: Give the reported log10 of Ki for COc1nc(N(C)CC(=O)O)nc(OC)c1NC(=O)c1ccc(Cc2cc3c(cc2C)C(C)(C)OC3(C)C)o1 (system: human GnRH receptors (Homo sapiens, UniProt P30968)).
OUTPUT: 2.40

INPUT: Please provide the recorded log10 of Ki for COc1nc(NCCc2ccccn2)nc(OC)c1NC(=O)c1ccc(Cc2cc3c(cc2C)C(C)(C)OC3(C)C)o1 , tested on human GnRH receptors (Homo sapiens, UniProt P30968).
OUTPUT: 0.83

INPUT: Field: log10 of Ki (human GnRH receptors (Homo sapiens, UniProt P30968)). Entry: COc1nc(NCCNC2C3CC4CC(C3)CC2C4)nc(OC)c1NC(=O)c1ccc(Cc2cc3c(cc2C)C(C)(C)OC3(C)C)o1 (stereo not shown)
OUTPUT: 0.41
